For each record, write down the corresponding IC50.
# assay target: Itk (Homo sapiens)
# Construct: Kinases are expressed as either kinase domains or full length constructs; made in house
# Sequence (Q08881 whole entry, species assumed, the tested form may be a part): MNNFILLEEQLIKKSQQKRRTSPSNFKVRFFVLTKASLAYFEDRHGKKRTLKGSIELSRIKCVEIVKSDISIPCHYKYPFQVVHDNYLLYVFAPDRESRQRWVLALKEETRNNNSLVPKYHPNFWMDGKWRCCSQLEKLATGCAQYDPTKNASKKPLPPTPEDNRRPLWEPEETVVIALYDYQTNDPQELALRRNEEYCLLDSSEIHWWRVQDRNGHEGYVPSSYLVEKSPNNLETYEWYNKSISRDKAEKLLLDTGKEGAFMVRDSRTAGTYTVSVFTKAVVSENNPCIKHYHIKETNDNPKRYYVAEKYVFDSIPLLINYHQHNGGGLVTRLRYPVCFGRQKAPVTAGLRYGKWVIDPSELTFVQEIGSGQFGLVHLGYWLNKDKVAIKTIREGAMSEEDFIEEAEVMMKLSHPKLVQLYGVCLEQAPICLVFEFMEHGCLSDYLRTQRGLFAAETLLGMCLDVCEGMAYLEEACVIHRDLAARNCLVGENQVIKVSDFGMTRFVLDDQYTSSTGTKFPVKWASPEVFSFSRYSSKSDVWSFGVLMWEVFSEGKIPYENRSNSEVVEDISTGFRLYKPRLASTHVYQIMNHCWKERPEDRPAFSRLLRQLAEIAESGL
# experiment description: Kinase inhibition assay (33P transfer), Itk
# Assay type: biochemical
# condition label: Table 3; read-out: Itk-1

IC50 in this record for COc1cc(Nc2ncnc(Nc3cnc4ccccc4c3)n2)cc(OC)c1OC [Compound 99] : > 11.1 µM

Record summary for COc1cc(Nc2ncnc(Nc3cc(F)ccc3F)n2)cc(OC)c1OC [Compound 316] : reported IC50 = > 11.6 µM

Please fill in: IC50 reported for COc1ccc(Nc2ncnc(N(CC(=O)OC(C)(C)C)c3ccc4c(c3)OCO4)n2)cc1OC [Compound 310] = > 9.35 µM

// IC50 value for COc1cc(Nc2ncnc(Nc3cc(-c4ccco4)n[nH]3)n2)cc(OC)c1 [Compound 365] : 1.05 to 6.33 µM

The reported IC50 of the compound COc1cc(Nc2ncnc(-n3c(NC(=O)c4ccccc4)nc4ccccc43)n2)cc(OC)c1OC [Compound 435] was > 9.04 µM

Short answer for COc1ccc(Nc2ncnc(Nc3cc(OC)c(OC)c(OC)c3)n2)cc1OC [Compound 36] : IC50 was > 10.9 µM

Recorded IC50 (compound CCN(CC)CCCNc1ccc(-c2ncnc(Nc3cc(OC)c(OC)c(OC)c3)n2)cn1 [Compound 448] ): > 9.62 µM

Item: COc1cc(Nc2ncnc(-n3c(Nc4ccccc4)nc4ccccc43)n2)cc(OC)c1OC [Compound 336] | IC50: > 9.58 µM

Short answer for CCOC(=O)Cc1ccc(Nc2ncnc(-c3ccccc3)n2)cc1 [Compound 164] : IC50 was > 13.5 µM

# compound COCCOc1ccc(Nc2ncnc(-c3ccccc3)n2)cc1 [Compound 155] ; its IC50 = > 14 µM

Reported IC50 of COc1cc(Nc2ncnc(N3CCOCC3)n2)cc(OC)c1OC [Compound 209] : > 13 µM

COc1cc(Nc2ncnc(-n3ccc4c(OC)cccc43)n2)cc(OC)c1OC [Compound 238] yielded IC50 of > 11 µM

Entry Oc1cccc(Nc2ncnc(-c3ccccc3)n2)c1 [Compound 18] — recorded IC50 = > 17 µM

# IC50 (compound: c1ccc(COc2cccc(Nc3ncnc(-c4cccs4)n3)c2)cc1 [Compound 361] ) is > 12.5 µM

// recorded IC50 for COc1cc(Nc2ncnc(N[C@H](CO)c3ccccc3)n2)cc(OC)c1OC [Compound 425] : > 11.3 µM

For reference, reported IC50 for COc1cc(Nc2ncnc(Nc3ccc(N(C)C)cc3)n2)cc(OC)c1OC [Compound 27] stands at > 11.4 µM

Entry COc1cc(Nc2ncnc(Nc3cc(-c4ccccc4)nn3C)n2)cc(OC)c1OC [Compound 394] — recorded IC50 = > 10.4 µM

Please fill in: IC50 reported for COCCOc1cc(Nc2ncnc(Nc3ccc(C)c(O)c3)n2)ccc1OC [Compound 127] = > 11.3 µM
